# reported pEC50; entries follow
# System: Jurkat cells
# assay.summary: IL-2 secretion assay in CD3/CD28-activated Jurkat cells (AlphaLISA)
# Format: cell-based
# particulars: Homo sapiens, CD3/CD28 T Cell Activator, 24 h, IL-2 AlphaLISA
pEC50: −log10 of the molar value.

Take a look at these entries with their results.
[[record]]
compound = "Cn1cnnc1[C@]1(c2cccc(-n3cc(C4CC4)c4[nH]c(=O)[nH]c4c3=O)c2)C[C@@H](C)C1 (single isomer, unassigned) [Example 118]"
measured_result = "< 5.30"

[[record]]
compound = "C[C@H]1CCCN(Cc2cc3ncn(-c4cccc([C@]5(c6nncn6C(F)F)C[C@H](F)C5)c4)c(=O)c3[nH]2)C1 [Example 149]"
measured_result = "> 7.00"

[[record]]
compound = "C[C@H]1CCCN(Cc2cc3c(C4CC4)cn(-c4cccc([C@]5(c6nncn6C)C[C@H](O)C5)c4)c(=O)c3[nH]2)C1 [Example 99]"
measured_result = "5.30 to 6.00"


**Query** Please give the measured pEC50 for this compound: C[C@H]1CCCN(Cc2cc3c(C4CC4)cn(-c4cccc(C(O)(c5nncn5C)C5CCC5)c4)c(=O)c3[nH]2)C1 (stereo partly shown) [Example 155]
**Result** 6.00 to 7.00

----------
# reported pIC50; entries follow
# subject.of.test: Cbl-b (Homo sapiens)
# Sequence (Q13191 whole entry, species assumed): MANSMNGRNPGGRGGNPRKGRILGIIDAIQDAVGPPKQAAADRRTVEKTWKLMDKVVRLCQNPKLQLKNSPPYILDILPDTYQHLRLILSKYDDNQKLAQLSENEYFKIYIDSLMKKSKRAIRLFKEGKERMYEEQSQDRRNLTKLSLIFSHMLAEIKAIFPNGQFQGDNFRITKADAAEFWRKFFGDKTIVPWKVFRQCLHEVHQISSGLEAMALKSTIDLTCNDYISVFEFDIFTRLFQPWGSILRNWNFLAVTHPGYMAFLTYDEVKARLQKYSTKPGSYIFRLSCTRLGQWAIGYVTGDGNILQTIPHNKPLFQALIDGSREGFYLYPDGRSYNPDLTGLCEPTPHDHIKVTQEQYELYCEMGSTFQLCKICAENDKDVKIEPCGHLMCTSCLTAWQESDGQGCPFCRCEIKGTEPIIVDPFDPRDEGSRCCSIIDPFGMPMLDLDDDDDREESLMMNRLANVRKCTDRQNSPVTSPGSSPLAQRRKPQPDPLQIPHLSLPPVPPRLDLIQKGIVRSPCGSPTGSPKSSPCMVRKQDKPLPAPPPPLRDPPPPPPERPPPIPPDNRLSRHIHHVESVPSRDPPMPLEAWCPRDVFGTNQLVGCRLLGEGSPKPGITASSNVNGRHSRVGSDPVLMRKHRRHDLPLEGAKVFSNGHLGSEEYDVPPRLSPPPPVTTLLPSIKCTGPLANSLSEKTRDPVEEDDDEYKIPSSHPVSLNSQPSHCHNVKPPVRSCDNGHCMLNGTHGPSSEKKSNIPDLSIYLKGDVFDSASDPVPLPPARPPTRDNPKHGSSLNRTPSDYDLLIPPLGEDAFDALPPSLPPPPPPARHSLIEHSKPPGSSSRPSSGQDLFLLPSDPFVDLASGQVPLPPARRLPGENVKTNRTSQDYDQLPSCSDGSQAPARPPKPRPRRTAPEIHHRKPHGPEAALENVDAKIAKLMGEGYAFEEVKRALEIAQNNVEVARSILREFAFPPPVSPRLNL
pIC50: −log10 of the molar value.

Take a look at these entries with their results.
[[record]]
compound = "C[C@H]1CCCN(Cc2cc3c(C4CC4)cn(-c4cccc([C@]5(c6nncn6C)C[C@@H](OC(F)F)C5)c4)c(=O)c3[nH]2)C1"
quantity_name = "pIC50"
measured_result = "> 7.00"

[[record]]
compound = "CC1CC(c2cccc(-n3cc(C4CC4)c4nc[nH]c4c3=O)c2)(c2nncn2C)C1 (stereo not drawn)"
quantity_name = "pIC50"
measured_result = "6.00 to 7.00"

[[record]]
compound = "CC1CC(c2cccc(-n3cc(C4CC4)c4cc(CN[C@H]5CCOC5)[nH]c4c3=O)c2)(c2nncn2C)C1 (stereo partly drawn)"
quantity_name = "pIC50"
measured_result = "> 7.00"

[[record]]
compound = "C[C@H]1CCCN(Cc2cc3c(C4CC4)cn(-c4cc(C(C)(C)c5nncn5C)ccn4)c(=O)c3[nH]2)C1"
quantity_name = "pIC50"
measured_result = "6.00 to 7.00"

[[record]]
compound = "CC(Sc1nncn1C)c1cccc(-n2cc(C3CC3)c3cc(CN4CCC[C@H](C)C4)[nH]c3c2=O)c1 (stereo partly drawn)"
quantity_name = "pIC50"
measured_result = "6.00 to 7.00"

[[record]]
compound = "Cn1cnnc1[C@]1(c2cccc(-n3cc(S(C)(=O)=O)c4cc[nH]c4c3=O)c2)C[C@H](C)C1 (single isomer, unassigned)"
quantity_name = "pIC50"
measured_result = "6.00 to 7.00"

[[record]]
compound = "Cn1cnnc1CC1(c2cccc(-n3cc(C4CC4)c4cc(CN5CCC6(CC6)C5)[nH]c4c3=O)c2)COC1"
quantity_name = "pIC50"
measured_result = "> 7.00"

[[record]]
compound = "CC1CC(c2cccc(-n3cc(C4CC4)c4cc(CN5CCC6(CC6)C5)[nH]c4c3=O)c2)(c2nncn2C)C1 (stereo not drawn)"
quantity_name = "pIC50"
measured_result = "> 7.00"

[[record]]
compound = "Cn1cnnc1[C@]1(c2cccc(-n3cc(C(F)(F)F)c4cc[nH]c4c3=O)c2)C[C@@H](C)C1 (single isomer, unassigned)"
quantity_name = "pIC50"
measured_result = "> 7.00"

[[record]]
compound = "CC1CC(c2cccc(-n3cc(C4CC4)c4cc(CN5[C@@H]6COC[C@H]5C6)[nH]c4c3=O)c2)(c2nncn2C)C1 (stereo partly drawn)"
quantity_name = "pIC50"
measured_result = "> 7.00"


**Query** Please give the measured pIC50 for this compound: Cn1cnnc1C1(c2cccc(-n3cc(C4CC4)c4cc(CNCC5(CO)CC5)[nH]c4c3=O)c2)CC(F)(F)C1
**Result** > 7.00

**Query** Please give the measured pIC50 for this compound: C[C@@H]1CN(Cc2nc3c(C4CC4)cn(-c4cccc([C@]5(c6nncn6C)C[C@H](C)C5)c4)c(=O)c3[nH]2)CCO1
**Result** > 7.00

**Query** Please give the measured pIC50 for this compound: CC1CC(c2cccc(-n3cc(C4CC4)c4cc(CN5C[C@H](F)C[C@H](F)C5)[nH]c4c3=O)c2)(c2nncn2C)C1 (stereo partly drawn)
**Result** 6.00 to 7.00

**Query** Please give the measured pIC50 for this compound: C[C@@H]1CN(Cc2cc3c(C4CC4)cn(-c4cccc(C5(c6nncn6C)CC(F)(F)C5)c4)c(=O)c3[nH]2)CCO1
**Result** > 7.00

**Query** Please give the measured pIC50 for this compound: Cn1cnnc1[C@]1(c2cccc(-n3cc(C4CC4)c4cn[nH]c4c3=O)c2)C[C@H](C)C1
**Result** > 7.00

**Query** Please give the measured pIC50 for this compound: Cn1cnnc1[C@]1(c2cccc(-n3cc(CO)c4cn[nH]c4c3=O)c2)C[C@H](C)C1
**Result** 5.30 to 6.00

----------
# reported pEC50; entries follow
# Test system: Jurkat cells
# assay.summary: IL-2 secretion assay in CD3/CD28-activated Jurkat cells (AlphaLISA)
# Format: cell-based
# particulars: Homo sapiens, CD3/CD28 T Cell Activator, 24 h, IL-2 AlphaLISA
# Description: Certain compounds were also evaluated in an IL-2 secretion assay. On the day of the assay, a 16 point, 1:2 master serial dilution of each compound was prepared in Opti-MEM to span a final concentration range of 10 μM to 300 pM. […] The AiphaLISA signal was measured using an EnVision plate reader (PerkinElmer). EC50 values were determined by fitting the data to a standard 4-parameter logistic equation.
pEC50: −log10 of the molar value.

Take a look at these entries with their results.
[[record]]
molecule = "Cn1cnnc1[C@]1(c2cccc(-n3cc(C(F)(F)F)c4cc[nH]c4c3=O)c2)C[C@H](C)C1 (single isomer, unassigned)"
quantity_name = "pEC50"
measured_result = "6.00 to 7.00"

[[record]]
molecule = "Cn1cnnc1C1(c2cccc(-n3cc(C4CC4)c4cc(CN5CCC[C@@H]5CO)[nH]c4c3=O)c2)CC(F)(F)C1"
quantity_name = "pEC50"
measured_result = "5.30 to 6.00"

[[record]]
molecule = "CC1CC(c2cccc(-n3cc(C4CC4)c4cc(CN5CCC6(CC6)C5)[nH]c4c3=O)c2)(c2nncn2C)C1 (stereo not shown)"
quantity_name = "pEC50"
measured_result = "> 7.00"


**Query** Please give the measured pEC50 for this molecule: CC1CC(c2cccc(-n3cc(C(=O)O)c4cn[nH]c4c3=O)c2)(c2nncn2C)C1 (mixture of isomers)
**Result** < 5.30

----------
# IC50 per entry for Cbl-b (Homo sapiens, UniProt Q13191)

[[record]]
compound = "C[C@H]1CCCN(Cc2cc3c(C4CC4)cn(-c4cccc([C@]5(c6nncn6C)C[C@H](OC(F)F)C5)c4)c(=O)c3[nH]2)C1 [Example 95]"
subject_of_test = "Cbl-b (Homo sapiens, UniProt Q13191)"
quantity_name = "IC50"
measured_result = "< 100 nM"

[[record]]
compound = "C[C@H]1CCCN(Cc2cc3c(C4CC4)cn(-c4cccc(C5(c6nnco6)CC(F)(F)C5)c4)c(=O)c3[nH]2)C1 [Example 121]"
subject_of_test = "Cbl-b (Homo sapiens, UniProt Q13191)"
quantity_name = "IC50"
measured_result = "100 to 1000 nM"

[[record]]
compound = "C[C@H]1CCCN(Cc2cc3c(C4CC4)cn(-c4cccc([C@]5(c6nncn6C)C[C@@H](F)C5)c4)c(=O)c3[nH]2)C1 [Example 129]"
subject_of_test = "Cbl-b (Homo sapiens, UniProt Q13191)"
quantity_name = "IC50"
measured_result = "< 100 nM"


**Query** Please give the measured IC50 for this compound: CC1CC(c2cccc(-n3nc(C4CC4)c4cc[nH]c4c3=O)c2)(c2nncn2C)C1 (centres unmarked) [Example 116]
**Result** 1000 to 5000 nM

**Query** Please give the measured IC50 for this compound: Cn1cnnc1C1(c2cccc(-n3cc(C4CC4)c4cc(CN5CC[C@@H](F)[C@H](O)C5)[nH]c4c3=O)c2)CC(F)(F)C1 [Example 93]
**Result** 100 to 1000 nM

**Query** Please give the measured IC50 for this compound: CC1CC(c2cccc(-n3cc(C4CC4)c4cc(CN5C[C@@H](F)C[C@H](F)C5)[nH]c4c3=O)c2)(c2nncn2C)C1 (some centres unmarked) [Example 65]
**Result** < 100 nM

**Query** Please give the measured IC50 for this compound: C[C@H]1CCCN(Cc2cc3c(C4CC4)cn(-c4cccc(C5(c6nncn6C)CC6(CC6)C5)c4)c(=O)c3[nH]2)C1 [Example 74]
**Result** < 100 nM

**Query** Please give the measured IC50 for this compound: C[C@H]1CCCN(Cc2nc3c(C4CC4)cn(-c4cccc([C@]5(c6nncn6C)C[C@H](C)C5)c4)c(=O)c3[nH]2)C1 [Example 109]
**Result** < 100 nM
